- assay-procedure: qHTS of pediatric cancer cell lines to identify multiple opportunities for drug repurposing: Confirmatory screen for OHS-50 cells (AID 1347128);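 further: compound exposure lasted 48 h at 37 degrees C; nearly all actives have a fitted effect of over 55% in size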
- conditions-used: OHS-50 osteosarcoma cells viability; series mostly up to 45.9 µM
Records with an inconclusive call do not appear. Activity calls are given as the source filed them. The call rests on the fitted dose curve; in most records, active means well fitted cell-killing curve with a large enough effect; inconclusive means small, poorly fitted or top-dose-only effect, or effect the other way; inactive means no such curve, though single readings can be large or run the other way.
Classes used: active, inactive

molecule	assigned-class
CC(=O)O[C@]1(C(C)=O)CC[C@@H]2[C@@H]3C[C@H](C)C4=CC(=O)CC[C@]4(C)[C@H]3CC[C@@]21C	inactive
NC1=N[C@@]2(c3cc(NC(=O)c4ccc(F)cn4)ccc3F)COC[C@@H]2CS1	inactive
O=C(O)c1ccc(-c2c[nH]c3ncc(-c4ccccc4)cc23)cc1C1CCCC1	inactive
CC(C)(C(=O)NCC(F)(F)C(F)(F)F)C(=O)N[C@@H]1C(=O)Nc2ccccc2-c2ccccc21	inactive
COc1ncc(-c2ccc3nccc(-c4ccnnc4)c3c2)cc1NS(=O)(=O)c1ccc(F)cc1F	active
CC(=O)Nc1ccc([C@H](C)C(=O)Nc2ncc(C(C)C)s2)cc1	active
CC(C)n1nc(-c2ccc3oc(N)nc3c2)c2c(N)ncnc21	active
C=C1C(=O)[C@@]23C(CC[C@@H]1[C@H]2O)[C@@]12CO[C@]3(O)[C@@H](O)[C@@H]1C(C)(C)CC[C@@H]2O (some centres undefined)	active
CC(=O)Oc1cc2c(s1)CCN(C(C(=O)C1CC1)c1ccccc1F)C2 (centres undefined)	inactive
